# Test system: E. coli TESEC Mtb Asd
# Assay Notes: growth (OD600 after 10 h); higher = more growth (less inhibition)
# Condition Description: arabinose induction (level): Low; compound 0.1 mM; raw OD600 reference: median of DMSO wells 0.417, cell-free background 0.041
Counter-ions that a name gives are not always drawn.
Rule: growth under 0.4 gives Condition not met, otherwise Condition met.

N#Cc1ccc(C(c2ccc(C#N)cc2)n2cncn2)cc1    Condition not met
Cn1c(=O)c2c(ncn2C)n(C)c1=O    Condition not met
C#C[C@]1(OC(C)=O)CC[C@H]2[C@@H]3CCC4=C[C@@H](OC(C)=O)CC[C@@H]4[C@H]3CC[C@@]21C [Ethynodiol diacetate]    Condition not met
O=C(N[C@H](CO)[C@H](O)c1ccc([N+](=O)[O-])cc1)C(Cl)Cl    Condition not met

QUERY: Tell me whether growth is at least 0.4 here: CNCCC=C1c2ccccc2CCc2ccccc21 [Nortriptyline hydrochloride]
RESULT: Condition not met

QUERY: Tell me whether growth is at least 0.4 here: Cc1cc(C)nc(NS(=O)(=O)c2ccc(N)cc2)n1 [Sulfamethazine sodium salt]
RESULT: Condition met

QUERY: Tell me whether growth is at least 0.4 here: CC1CCc2cc(F)cc3c(=O)c(C(=O)O)cn1c23 (stereo not drawn)
RESULT: Condition not met

QUERY: Tell me whether growth is at least 0.4 here: CC(C)(C)NCC(O)COc1cccc2c1CC(O)C(O)C2 (stereo not drawn)
RESULT: Condition met

QUERY: Tell me whether growth is at least 0.4 here: CCOc1ccc2ccccc2c1C(=O)N[C@@H]1C(=O)N2[C@@H]1SC(C)(C)[C@@H]2C(=O)O [Nafcillin sodium salt monohydrate]
RESULT: Condition met

====

# Test system: E. coli TESEC Alr+ wild-type control
# Assay Notes: growth (OD600 after 10 h); higher = more growth (less inhibition)
# Condition Description: compound 0.1 mM; raw OD600 reference: median of DMSO wells 0.241, cell-free background 0.041
Where a name gives a salt, the structure may show the parent alone.
Measurement Type: growth

# count of solved cases: 3
Nc1nc(N)nc(-c2cc(Cl)ccc2Cl)n1 [Irsogladine maleate]    0.238
CCN1CCN(C(=O)N[C@@H](C(=O)N[C@@H]2C(=O)N3[C@@H]2SC(C)(C)[C@@H]3C(=O)O)c2ccccc2)C(=O)C1=O [Piperacillin sodium salt]    0.237
CC1(C)S[C@@H]2[C@H](NC(=O)[C@H](N)c3ccccc3)C(=O)N2[C@H]1C(=O)O [Ampicillin trihydrate]    0.235

Shift focus to the following entry.
QUERY: Quote growth reported for O=P(O)(O)C(O)(Cn1ccnc1)P(=O)(O)O [Zoledronic acid hydrate] please.
RESULT: 0.241

====

# Tested on: E. coli TESEC Mtb Alr
# Assay Notes: growth (OD600 after 10 h); higher = more growth (less inhibition)
# Condition Description: arabinose 100 nM; compound 0.1 mM; raw OD600 reference: median of DMSO wells 0.413, cell-free background 0.052
Where a name gives a salt, the structure may show the parent alone.
Measurement Type: growth

# count of solved cases: 3
CN1CCC(=C2c3ccccc3CCc3cccnc32)CC1 [Azatadine maleate]    0.4
O=C(Nc1ccc([N+](=O)[O-])cc1Cl)c1cc(Cl)ccc1O [Niclosamide]    0.0618
CCCN(CCC)S(=O)(=O)c1ccc(C(=O)O)cc1    0.4

QUERY: Report value: growth, system: E. coli TESEC Mtb Alr, compound: CCCCC[C@H](O)/C=C/[C@H]1[C@H](O)CC(=O)[C@@H]1CCCCCCC(=O)O
RESULT: 0.364

QUERY: Report value: growth, system: E. coli TESEC Mtb Alr, compound: O=C1Nc2ccc(Cl)cc2[C@@](C#CC2CC2)(C(F)(F)F)O1
RESULT: 0.259
